B1: WDR88 (parent)
chain: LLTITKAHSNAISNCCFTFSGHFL

# Variants of: B1
# measurementDescription: protein stability index of a GFP-peptide fusion (GPS, HEK-293T) (PSI 1-6); higher = more stable;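 further: lentivirally expressed fusions sorted by FACS into six bins by GFP to DsRed ratio, PSI derived from sequencing read proportions per bin multiplied by bin number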
# assaySetup: c terminus: a fixed tail appended
quantityMeasured: protein stability index

INSERT INTO measurements (sequenceentry, reportedresult) VALUES
  ('LLTITKAHSNAISNCCFTFSYHFL [G21Y]', 2.25),
  ('LLTITKAHSNAISVCCFTFSGHFL [N14V]', 2.52),
  ('LLMITKAHSNAISNCCFTFSGHFL [T3M]', 3.13),
  ('LLTITKAHSNAISNCHFTFSGHFL [C16H]', 2.61),
  ('LLTITKAHSNAISNCCFTRSGHFL [F19R]', 2.66),
  ('LLTITGAHSNAISNCCFTFSGHFL [K6G]', 2.44),
  ('LLCITKAHSNAISNCCFTFSGHFL [T3C]', 2.84),
  ('LLTITKAHSQAISNCCFTFSGHFL [N10Q]', 3.31),
  ('LLAITKAHSNAISNCCFTFSGHFL [T3A]', 2.93),
  ('LLTITKAHINAISNCCFTFSGHFL [S9I]', 2.46),
  ('LLTITKAHSNVISNCCFTFSGHFL [A11V]', 2.69),
  ('LLTITKAHSNAISNCCFTHSGHFL [F19H]', 3.04),
  ('TLTITKAHSNAISNCCFTFSGHFL [L1T]', 3.09),
  ('LLTITKTHSNAISNCCFTFSGHFL [A7T]', 2.58),
  ('LLTITKAHSNAISNCCFTFSKHFL [G21K]', 2.77),
  ('LLTITKAHSNAISNCCFTFSGHFT [L24T]', 2.47),
  ('LLTITKAWSNAISNCCFTFSGHFL [H8W]', 2.17),
  ('LLTITKPHSNAISNCCFTFSGHFL [A7P]', 2.04),
  ('LLTITKAHSNAIRNCCFTFSGHFL [S13R]', 2.7),
  ('LLTITKAHSNAISNCCFIFSGHFL [T18I]', 2.34),
  ('LLTITKAHSNAISNCCFTFSGHEL [F23E]', 2.1),
  ('LLTITEAHSNAISNCCFTFSGHFL [K6E]', 2.67);
